Ref: ChEMBL document CHEMBL1149424

pIC50 data for Cannabinoid receptor 1 (Homo sapiens) follow.
pIC50 here is simply -log10 of the concentration when that concentration is written in mol/L.

Query: pIC50; subject: CC(=O)c1c(NC(=O)CO)c2cc(-c3ccc(Cl)cc3)c(-c3ccc(Cl)cc3Cl)nc2n(C)c1=O
7.34

CC(=O)Nc1cc(=O)n(C)c2nc(-c3ccc(Cl)cc3Cl)c(-c3ccc(Cl)cc3)cc12 , same question.
6.96

COc1c(NC(C)=O)c2cc(-c3ccc(Cl)cc3)c(-c3ccc(Cl)cc3Cl)nc2n(C)c1=O , same question.
7.62

CC(=O)Nc1c(C(C)=O)c(=O)n(Cc2ccccc2)c2nc(-c3ccc(Cl)cc3Cl)c(-c3ccc(Cl)cc3)cc12 , same question.
8.64

CC(=O)Nc1c(C(C)=O)c(=O)n(CCO)c2nc(-c3ccc(Cl)cc3Cl)c(-c3ccc(Cl)cc3)cc12 , same question.
7.49

CC(=O)c1c(C)c2cc(-c3ccc(Cl)cc3)c(-c3ccc(Cl)cc3Cl)nc2n(C)c1=O , same question.
7.26

COCC(=O)Nc1c(C(C)=O)c(=O)n(C)c2nc(-c3ccc(Cl)cc3Cl)c(-c3ccc(Cl)cc3)cc12 , same question.
7.62

COCCn1c(=O)c(C(C)=O)c(NC(C)=O)c2cc(-c3ccc(Cl)cc3)c(-c3ccc(Cl)cc3Cl)nc21 , same question.
8.43

###

- PROCEDURE SUMMARY: Oral bioavailability in Beagle dog
- Type: ADME, organism-based, Canis lupus familiaris
- CONDITION SET: in vivo
REPORTED METRIC: bioavailability (%)
# output: bare number, implied unit %

Query: bioavailability; subject: CC(=O)Nc1c(C(C)=O)c(=O)n(C)c2nc(-c3ccc(Cl)cc3Cl)c(-c3ccc(Cl)cc3)cc12 [NAPHTHYRIDINONE]
100

###

- PROCEDURE SUMMARY: Plasma clearance in C57BL/6 mouse
- Type: ADME, organism-based
REPORTED METRIC: clearance
Please state the number and follow it with the unit.

Query: clearance; subject: CC(=O)Nc1c(C(C)=O)c(=O)n(C)c2nc(-c3ccc(Cl)cc3Cl)c(-c3ccc(Cl)cc3)cc12
13.9 mL/min/kg
